Cited source for all entries: ChEMBL document CHEMBL4000255

- Assay Explanation: AUC (0 to infinity) in cynomolgus monkey at 2 mg/kg, iv administered as single bolus dose by LC-MS/MS analysis
- Type: ADME, organism-based, Macaca fascicularis
- Parameters: dose 2 mg/kg, time infinity, route intravenous
- Particulars: in vivo
Property Measured: AUC(0-inf) (µM·h)
Use µM·h as the unit, but write only the number.

**Query** Can you share its AUC(0-inf)? I mean this compound: "O=C(O)CSc1nnc(Br)n1-c1ccc(C2CC2)c2ccccc12"
**Result** 26.7

====

- Assay Explanation: Apparent permeability from apical to basolateral side in MDCK cells expressing MDR1
- Assay type: ADME, cell-based, Canis lupus familiaris
- Particulars: dog, MDCK-MDR1
Property Measured: Papp A→B (×10⁻⁶ cm/s)
Write the number in ×10⁻⁶ cm/s without appending the unit.

**Query** Could you share which Papp A→B value was measured for O=C(O)CSc1nnc(Br)n1-c1ccc(C2CC2)c2ccccc12 [LESINURAD] ?
**Result** 1.34
